Molecular target: T1, IL-23 receptor on the surface of HEK-Blue IL-23 cells (UniProt Q5VWK5 24-629, limits assumed)
T1 sequence (looked up): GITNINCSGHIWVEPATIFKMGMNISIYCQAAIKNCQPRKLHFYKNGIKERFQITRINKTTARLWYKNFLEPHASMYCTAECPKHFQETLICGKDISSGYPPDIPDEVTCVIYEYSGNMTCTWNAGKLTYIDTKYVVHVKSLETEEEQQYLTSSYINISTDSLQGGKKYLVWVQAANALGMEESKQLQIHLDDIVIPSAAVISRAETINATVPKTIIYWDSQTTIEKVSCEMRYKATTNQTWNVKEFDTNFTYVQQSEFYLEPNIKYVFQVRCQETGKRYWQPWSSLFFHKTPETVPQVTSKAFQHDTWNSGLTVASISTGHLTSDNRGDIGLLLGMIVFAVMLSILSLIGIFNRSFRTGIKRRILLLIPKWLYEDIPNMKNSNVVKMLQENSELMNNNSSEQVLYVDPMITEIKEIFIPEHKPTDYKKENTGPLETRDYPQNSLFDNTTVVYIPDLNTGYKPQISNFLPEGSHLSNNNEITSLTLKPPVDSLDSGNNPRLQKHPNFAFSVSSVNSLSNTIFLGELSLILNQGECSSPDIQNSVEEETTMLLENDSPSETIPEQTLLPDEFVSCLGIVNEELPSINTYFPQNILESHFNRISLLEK
Assay: cell-based or functional assay
Starred links: 1 amine or outer side, 2 acyl side, 3 side chain; linkers in the order of their positions; H or OH if unused. Positions of bridges follow the written chain, without caps; N, C: chain ends. Non-standard residues stand in square brackets, D forms with d. No end group written: not given here. Yde = (2S)-2-amino-3-[4-[2-(dimethylamino)ethoxy]phenyl]propanoic acid, CN(C)CCOc1ccc(C[C@H](N[*:1])C(=O)[*:2])cc1; Trp(7-Me) = Cc1cccc2c(C[C@H](N)C(=O)O)c[nH]c12; αMeLys(Me2) = CN(C)CCCC[C@](C)(N)C(=O)O; 2Nal = N[C@@H](Cc1ccc2ccccc2c1)C(=O)O; εLys = N[C@@H](CCCCN[*:1])C(=O)[*:2]; AEF = NCCOc1ccc(C[C@H](N)C(=O)O)cc1; NMe5Ava = CN(CCCCC(=O)[*:2])[*:1]; 3Pal = N[C@@H](Cc1cccnc1)C(=O)O; Dad = desamino-aspartamic acid; Lys(Me) = CNCCCC[C@H](N)C(=O)O; αMeL = CC(C)C[C@](C)(N)C(=O)O; Aib = CC(C)(N)C(=O)O; Ahx = NCCCCCC(=O)O; Ava = NCCCCC(=O)O; Sar = CNCC(=O)O
ASSAY METRIC: pSTAT3 (nM)
Note: unit nM is implicit; provide only the numeric part.

[Ahx]C[Ava]WQC[AEF][2Nal][Aib]DAG-NH2 (lactam N-10; disulfide 2-6; SMILES C[C@H](NC(=O)[C@@H]1CC(=O)NCCCCCC(=O)N[C@H]2CSSC[C@H](NC(=O)[C@H](CCC(N)=O)NC(=O)[C@H](Cc3c[nH]c4ccccc34)NC(=O)CCCCNC2=O)C(=O)N[C@@H](Cc2ccc(OCCN)cc2)C(=O)N[C@@H](Cc2ccc3ccccc3c2)C(=O)NC(C)(C)C(=O)N1)C(=O)NCC(N)=O) [Compound of SEQ ID NO: 53]
60.8
[NMe5Ava]C[εLys](Ac)[Trp(7-Me)]K(Ac)C[Yde][2Nal][Aib]ENH-NH2 (lactam N-10; disulfide 2-6; also: Cys2 bonded to epsilon-NH2 of Lys3, Lys3 alpha-amine acetylated (K[aAc])) [Compound of SEQ ID NO: 60]
0.16

IN: May I ask what pSTAT3 (nM) has been recorded for [Dad]CK[Trp(7-Me)]K(Ac)C[Yde][2Nal][αMeL]KN[3Pal][Sar]-NH2 (lactam (positions not given here); disulfide 2-6; not fully specified (residue 3, bridges); printed as Dad(§1)-C(§3)(@2)-K[aAc](@3)-Wim-K[Ac]-C(@2)-Yde-Nal-Mle-K(§1)-N-Pal-Sar-NH2; also: K[aAc]: Cys2 bonded to epsilon-NH2 of acetylated Lys3, acetyl presumably on alpha-amine) [Compound of SEQ ID NO: 106] ?
OUT: 0.13

IN: Now try [Ava]C[εLys](Ac)WK(Ac)C[Yde][2Nal][αMeLys(Me2)]EN[3Pal][Sar]-NH2 (lactam N-10; disulfide 2-6; also: Cys2 bonded to epsilon-NH2 of Lys3, Lys3 alpha-amine acetylated (K[aAc])) [Compound of SEQ ID NO: 59] .
OUT: 0.07

IN: Now try [Dad]C[εLys](Ac)[Trp(7-Me)]LC[Yde][2Nal][αMeL][Lys(Me)]N[3Pal][Sar]-NH2 (lactam (positions not given here); disulfide 2-6; not fully specified (bridges); printed as Dad(§1)-C(§3)(@2)-K[aAc](@3)-Wim-L-C(@2)-Yde-Nal-Mle-Kme(§1)-N-Pal-Sar-NH2; also: Cys2 bonded to ε-NH2 of Lys3 (isopeptide backbone)) [Compound of SEQ ID NO: 68] .
OUT: 2.69
